- ASSAY COMMENT: The drug is tested on Bacteroides fragilis strain: ATCC43859 for biotransformation. The drug concentrations were measured before and after a 12-h incubation by liquid-chromatography-coupled mass spectrometry (LC–MS)
- SETTINGS: 2 µM

>  <COMPOUND>
COc1ccc2[nH]c([S+]([O-])Cc3ncc(C)c(OC)c3C)nc2c1 (stereo unspecified) [OMEPRAZOLE]

>  <Bacterial Biotransformation>
Compound metabolized

$$$$
>  <COMPOUND>
O=C(CCCN1CCC2(CC1)C(=O)NCN2c1ccccc1)c1ccc(F)cc1 [SPIPERONE]

>  <Bacterial Biotransformation>
Compound NOT metabolized

$$$$
>  <COMPOUND>
CC(=O)OCC(=O)[C@@]12N=C(C)O[C@@H]1C[C@H]1[C@@H]3CCC4=CC(=O)C=C[C@]4(C)[C@H]3[C@@H](O)C[C@@]12C [DEFLAZACORT]

>  <Bacterial Biotransformation>
Compound metabolized

$$$$
>  <COMPOUND>
CC(C(=O)O)c1ccc2c(c1)Cc1cccnc1O2 (stereo unspecified) [PRANOPROFEN]

>  <Bacterial Biotransformation>
Compound metabolized

$$$$
>  <COMPOUND>
Cc1ccc(S(=O)(=O)NC(=O)NN2CCCCCC2)cc1 [TOLAZAMIDE]

>  <Bacterial Biotransformation>
Compound metabolized

$$$$
>  <COMPOUND>
O=C(O)CCC(=O)O.O=C(O[C@H]1CN2CCC1CC2)N1CCc2ccccc2[C@@H]1c1ccccc1 [SOLIFENACIN SUCCINATE]

>  <Bacterial Biotransformation>
Compound NOT metabolized

$$$$
>  <COMPOUND>
O=c1[nH]c2ccccc2n1C1CCN(CCCC(c2ccc(F)cc2)c2ccc(F)cc2)CC1 [PIMOZIDE]

>  <Bacterial Biotransformation>
Compound NOT metabolized

$$$$
>  <COMPOUND>
CCCCC1=NC2(CCCC2)C(=O)N1Cc1ccc(-c2ccccc2-c2nnn[nH]2)cc1 [IRBESARTAN]

>  <Bacterial Biotransformation>
Compound metabolized

$$$$
>  <COMPOUND>
Br.COc1ccc2c(c1)[C@]13CCCC[C@@H]1[C@H](C2)N(C)CC3.O [DEXTROMETHORPHAN HYDROBROMIDE]

>  <Bacterial Biotransformation>
Compound NOT metabolized

$$$$
>  <COMPOUND>
CC(C)NCC(O)COc1ccc(CCOCC2CC2)cc1 (stereo unspecified) [BETAXOLOL]

>  <Bacterial Biotransformation>
Compound NOT metabolized

$$$$
>  <COMPOUND>
CC(C)[C@H]1CC[C@H](C(=O)N[C@H](Cc2ccccc2)C(=O)O)CC1 [NATEGLINIDE]

>  <Bacterial Biotransformation>
Compound metabolized

$$$$
>  <COMPOUND>
CCCCCNC(=N)N/N=C/c1c[nH]c2ccc(OC)cc12.O=C(O)/C=C\C(=O)O [TEGASEROD MALEATE]

>  <Bacterial Biotransformation>
Compound NOT metabolized

$$$$
>  <COMPOUND>
C[C@@H](CO)NC(=O)[C@@H]1C=C2c3cccc4[nH]cc(c34)C[C@H]2N(C)C1.O=C(O)/C=C\C(=O)O [ERGONOVINE MALEATE]

>  <Bacterial Biotransformation>
Compound metabolized

$$$$
>  <COMPOUND>
COC(=O)C(c1ccccc1)C1CCCCN1 (stereo unspecified) [METHYLPHENIDATE]

>  <Bacterial Biotransformation>
Compound NOT metabolized

$$$$
>  <COMPOUND>
CN1CCN(CC/C=C2/c3ccccc3Sc3ccc(S(=O)(=O)N(C)C)cc32)CC1 [THIOTHIXENE]

>  <Bacterial Biotransformation>
Compound NOT metabolized

$$$$
>  <COMPOUND>
COCCCC/C(=N\OCCN)c1ccc(C(F)(F)F)cc1.O=C(O)/C=C\C(=O)O [FLUVOXAMINE MALEATE]

>  <Bacterial Biotransformation>
Compound NOT metabolized

$$$$

* * *

- SETTINGS: bacteroides fragilis, 12 h, 2 µM
- Description: The drug is tested on Bacteroides fragilis strain: DS-208 for biotransformation. The drug concentrations were measured before and after a 12-h incubation by liquid-chromatography-coupled mass spectrometry (LC–MS)

>  <COMPOUND>
Cc1ccccc1C(OCCN(C)C)c1ccccc1.O=C(O)CC(O)(CC(=O)O)C(=O)O (stereo unspecified) [ORPHENADRINE CITRATE]

>  <Bacterial Biotransformation>
Compound NOT metabolized

$$$$
>  <COMPOUND>
COc1ccc2cc([C@H](C)C(=O)O)ccc2c1 [NAPROXEN]

>  <Bacterial Biotransformation>
Compound NOT metabolized

$$$$
>  <COMPOUND>
CCCCCNC(=N)N/N=C/c1c[nH]c2ccc(OC)cc12.O=C(O)/C=C\C(=O)O [TEGASEROD MALEATE]

>  <Bacterial Biotransformation>
Compound NOT metabolized

$$$$
>  <COMPOUND>
Cc1ccc(S(=O)(=O)NC(=O)NN2CC3CCCC3C2)cc1 (stereo unspecified) [GLICLAZIDE]

>  <Bacterial Biotransformation>
Compound NOT metabolized

$$$$
>  <COMPOUND>
CN(C)C(=O)Oc1cccc([N+](C)(C)C)c1.[Br-] [NEOSTIGMINE BROMIDE]

>  <Bacterial Biotransformation>
Compound metabolized

$$$$
>  <COMPOUND>
CC(C)(C)NCC(O)COc1cccc2c1CC(O)C(O)C2 (stereo unspecified) [NADOLOL]

>  <Bacterial Biotransformation>
Compound NOT metabolized

$$$$
>  <COMPOUND>
CCCCC(=O)O[C@]1(C(=O)CO)[C@@H](C)C[C@H]2[C@@H]3CCC4=CC(=O)C=C[C@]4(C)[C@@]3(F)[C@@H](O)C[C@@]21C [BETAMETHASONE VALERATE]

>  <Bacterial Biotransformation>
Compound metabolized

$$$$
>  <COMPOUND>
COc1ccc(C(CN(C)C)C2(O)CCCCC2)cc1 (stereo unspecified) [VENLAFAXINE]

>  <Bacterial Biotransformation>
Compound NOT metabolized

$$$$
>  <COMPOUND>
CC(=O)Nc1ccc(OC(C)=O)cc1 [DIACETAMATE]

>  <Bacterial Biotransformation>
Compound metabolized

$$$$
>  <COMPOUND>
CCC(C)n1ncn(-c2ccc(N3CCN(c4ccc(OCC5COC(Cn6cncn6)(c6ccc(Cl)cc6Cl)O5)cc4)CC3)cc2)c1=O (stereo unspecified) [ITRACONAZOLE]

>  <Bacterial Biotransformation>
Compound NOT metabolized

$$$$
>  <COMPOUND>
OC(CCN1CCCCC1)(c1ccccc1)C1CC2C=CC1C2 (stereo unspecified) [BIPERIDEN]

>  <Bacterial Biotransformation>
Compound NOT metabolized

$$$$
>  <COMPOUND>
C=CCc1ccccc1OCC(O)CNC(C)C (stereo unspecified) [ALPRENOLOL]

>  <Bacterial Biotransformation>
Compound NOT metabolized

$$$$
>  <COMPOUND>
CNCC[C@H](Oc1cccc2ccccc12)c1cccs1 [DULOXETINE]

>  <Bacterial Biotransformation>
Compound NOT metabolized

$$$$
>  <COMPOUND>
Cc1cc2c(s1)Nc1ccccc1N=C2N1CCN(C)CC1 [OLANZAPINE]

>  <Bacterial Biotransformation>
Compound NOT metabolized

$$$$
>  <COMPOUND>
C#C[C@]1(O)CC[C@H]2[C@@H]3CCC4=CC(=O)CC[C@@H]4[C@H]3CC[C@@]21CC [LEVONORGESTREL]

>  <Bacterial Biotransformation>
Compound metabolized

$$$$
>  <COMPOUND>
CSc1ccc2c(c1)C(N1CCN(C)CC1)Cc1ccccc1S2.O=C(O)/C=C\C(=O)O (stereo unspecified)

>  <Bacterial Biotransformation>
Compound NOT metabolized

$$$$
>  <COMPOUND>
O=C1N=C([O-])NC1(c1ccccc1)c1ccccc1.[Na+] [PHENYTOIN SODIUM]

>  <Bacterial Biotransformation>
Compound NOT metabolized

$$$$
>  <COMPOUND>
OC(CCN1CCCCC1)(c1ccccc1)C1CCCCC1 (stereo unspecified) [TRIHEXYPHENIDYL]

>  <Bacterial Biotransformation>
Compound NOT metabolized

$$$$
>  <COMPOUND>
CCCc1nc(C(C)(C)O)c(C(=O)OCc2oc(=O)oc2C)n1Cc1ccc(-c2ccccc2-c2nnn[nH]2)cc1 [OLMESARTAN MEDOXOMIL]

>  <Bacterial Biotransformation>
Compound metabolized

$$$$
>  <COMPOUND>
Clc1cccc(Cl)c1N=C1NCCN1 [CLONIDINE]

>  <Bacterial Biotransformation>
Compound metabolized

$$$$
>  <COMPOUND>
CCN(C(C)=O)c1cccc(-c2ccnc3c(C#N)cnn23)c1 [ZALEPLON]

>  <Bacterial Biotransformation>
Compound NOT metabolized

$$$$
>  <COMPOUND>
CCN(CC)C(C)CN1c2ccccc2Sc2ccccc21 (stereo unspecified) [ETHOPROPAZINE]

>  <Bacterial Biotransformation>
Compound NOT metabolized

$$$$
>  <COMPOUND>
CN(C)CCOC(c1ccc(Cl)cc1)c1ccccn1.O=C(O)/C=C\C(=O)O (stereo unspecified) [CARBINOXAMINE MALEATE]

>  <Bacterial Biotransformation>
Compound NOT metabolized

$$$$
>  <COMPOUND>
N#Cc1ccc2[nH]cc(CCCCN3CCN(c4ccc5oc(C(N)=O)cc5c4)CC3)c2c1 [VILAZODONE]

>  <Bacterial Biotransformation>
Compound metabolized

$$$$
>  <COMPOUND>
CCCC(C)(COC(N)=O)COC(=O)NC(C)C (stereo unspecified) [CARISOPRODOL]

>  <Bacterial Biotransformation>
Compound metabolized

$$$$
>  <COMPOUND>
CCC(COC(=O)c1cc(OC)c(OC)c(OC)c1)(c1ccccc1)N(C)C.O=C(O)/C=C\C(=O)O (stereo unspecified)

>  <Bacterial Biotransformation>
Compound NOT metabolized

$$$$
>  <COMPOUND>
CCc1cccc2c3c([nH]c12)C(CC)(CC(=O)O)OCC3 (stereo unspecified) [ETODOLAC]

>  <Bacterial Biotransformation>
Compound metabolized

$$$$
>  <COMPOUND>
Br.CN(C)CCCC1(c2ccc(F)cc2)OCc2cc(C#N)ccc21 (stereo unspecified) [CITALOPRAM HYDROBROMIDE]

>  <Bacterial Biotransformation>
Compound NOT metabolized

$$$$
>  <COMPOUND>
CC(C)(C(=O)O)c1ccc(C(O)CCCN2CCC(C(O)(c3ccccc3)c3ccccc3)CC2)cc1 (stereo unspecified) [FEXOFENADINE]

>  <Bacterial Biotransformation>
Compound NOT metabolized

$$$$
>  <COMPOUND>
CC1OC(OC2C(O)CC(OC3C(O)CC(OC4CCC5(C)C(CCC6C5CCC5(C)C(C7=CC(=O)OC7)CCC65O)C4)OC3C)OC2C)CC(O)C1O (stereo unspecified)

>  <Bacterial Biotransformation>
Compound metabolized

$$$$
>  <COMPOUND>
CC(C)(C#N)c1cc(Cn2cncn2)cc(C(C)(C)C#N)c1 [ANASTROZOLE]

>  <Bacterial Biotransformation>
Compound NOT metabolized

$$$$

All values here come from ChEMBL document CHEMBL5303573.
